- test system: T1, cyIL1RAP-His (Lake Pharma) (cynomolgus monkey, UniProt A0A2K5X5J5 21-367)
- T1 construct: Bought protein (Lake Pharma, lot 16205819371); also called cynomolgus IL1RAP; monkey IL1RAP; not shown: His tag
- T1 sequence: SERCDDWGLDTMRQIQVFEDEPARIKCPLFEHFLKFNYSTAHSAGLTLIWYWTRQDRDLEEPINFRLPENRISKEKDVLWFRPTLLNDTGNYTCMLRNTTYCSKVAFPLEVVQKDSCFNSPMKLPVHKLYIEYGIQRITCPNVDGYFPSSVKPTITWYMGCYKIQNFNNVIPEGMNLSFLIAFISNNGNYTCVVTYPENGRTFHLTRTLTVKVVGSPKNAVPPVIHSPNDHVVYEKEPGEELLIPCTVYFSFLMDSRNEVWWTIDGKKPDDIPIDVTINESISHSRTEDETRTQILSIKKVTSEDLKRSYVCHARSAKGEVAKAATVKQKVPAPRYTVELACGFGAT
- test: Octet BLI; mAb captured on anti-mouse IgG Fc sensor; cyIL1RAP-His analyte
metric name: kon (M⁻¹ s⁻¹)
Answer format: numeric, M⁻¹ s⁻¹ implied, no suffix.

For orientation, consider the following solved cases.
binder: STLX2007 (antibody, V domains shown, Purified from hybridoma of immunized Alivamab mice; intact IgG; captured on anti-mouse IgG Fc sensors in Octet; kappa light chain; also called 74804_07K10A) VH: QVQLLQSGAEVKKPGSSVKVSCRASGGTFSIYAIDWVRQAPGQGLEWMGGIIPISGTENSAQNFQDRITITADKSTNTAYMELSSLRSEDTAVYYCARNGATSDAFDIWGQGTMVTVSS VL: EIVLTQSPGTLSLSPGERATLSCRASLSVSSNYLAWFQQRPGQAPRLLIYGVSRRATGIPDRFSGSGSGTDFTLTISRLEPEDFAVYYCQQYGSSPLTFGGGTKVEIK
kon / M⁻¹ s⁻¹: 377000

binder: STLX2027 (antibody, V domains shown, Purified from hybridoma of immunized Alivamab mice; intact IgG; captured on anti-mouse IgG Fc sensors in Octet; lambda light chain; also called 74804_27I24A) VH: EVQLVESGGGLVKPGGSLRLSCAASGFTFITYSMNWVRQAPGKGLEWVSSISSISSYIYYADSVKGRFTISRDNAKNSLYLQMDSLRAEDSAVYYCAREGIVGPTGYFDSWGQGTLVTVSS VL: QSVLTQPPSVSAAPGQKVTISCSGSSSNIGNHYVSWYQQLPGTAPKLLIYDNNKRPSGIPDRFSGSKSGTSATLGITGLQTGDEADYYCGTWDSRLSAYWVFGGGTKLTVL
kon / M⁻¹ s⁻¹: 380000

binder: STLX2005 (antibody, V domains shown, Purified from hybridoma of immunized Alivamab mice; intact IgG; captured on anti-mouse IgG Fc sensors in Octet; kappa light chain; also called 74804_05B24A) VH: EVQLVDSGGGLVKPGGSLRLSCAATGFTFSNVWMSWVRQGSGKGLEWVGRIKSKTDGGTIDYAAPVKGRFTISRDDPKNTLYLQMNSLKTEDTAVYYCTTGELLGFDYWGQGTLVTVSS VL: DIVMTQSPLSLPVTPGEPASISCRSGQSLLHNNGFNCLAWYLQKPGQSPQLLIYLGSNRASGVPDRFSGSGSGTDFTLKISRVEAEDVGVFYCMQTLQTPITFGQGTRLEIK
kon / M⁻¹ s⁻¹: 268000

binder: STLX2025 (antibody, V domains shown, Purified from hybridoma of immunized Alivamab mice; intact IgG; captured on anti-mouse IgG Fc sensors in Octet; kappa light chain; also called 74804_25H09A) VH: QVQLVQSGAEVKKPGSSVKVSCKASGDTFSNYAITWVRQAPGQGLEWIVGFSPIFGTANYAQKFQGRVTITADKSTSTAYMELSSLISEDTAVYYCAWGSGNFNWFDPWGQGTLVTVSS VL: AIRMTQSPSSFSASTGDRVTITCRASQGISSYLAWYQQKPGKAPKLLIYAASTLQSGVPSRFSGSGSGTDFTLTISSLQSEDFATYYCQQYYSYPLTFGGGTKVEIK
kon / M⁻¹ s⁻¹: 142000

Field: next binder
So what's the measured kon for this one? STLX2018 (antibody, V domains shown, Purified from hybridoma of immunized Alivamab mice; intact IgG; captured on anti-mouse IgG Fc sensors in Octet; kappa light chain; also called 74804_18L05A) VH: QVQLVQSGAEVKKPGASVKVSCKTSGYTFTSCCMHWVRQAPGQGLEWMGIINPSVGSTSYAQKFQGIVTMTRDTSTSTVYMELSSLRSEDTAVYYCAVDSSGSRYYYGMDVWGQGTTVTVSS VL: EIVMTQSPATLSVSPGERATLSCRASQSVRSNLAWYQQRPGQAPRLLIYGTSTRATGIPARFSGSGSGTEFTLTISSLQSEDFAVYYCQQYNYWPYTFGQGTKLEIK
221000
